procedure-details: Pharmacokinetic studies in mice
Assay type: in vivo, male CD1 mice
condition: male, CD1, mouse, plasma, IV, 3 mg/kg
List of half-life values.
The answer is to be given in h; state only the numeric part.

# return recorded half-life for input Clc1cnc(Oc2cccc(-c3onc4ccc(-c5nnn[nH]5)cc34)c2)c(Cl)c1
2.01

Name the recorded half-life of the item O=C(Nc1cccc(-c2onc3ccc(-c4nnn[nH]4)cc23)c1)C1CC1 in your answer.
1.09

Name the recorded half-life of the item FC(F)(F)Oc1ccc(-c2onc3ccc(-c4nnn[nH]4)cc23)cc1 in your answer.
0.92

Consider the compound c1cc(OC2CCNCC2)cc(-c2onc3ccc(-c4nnn[nH]4)cc23)c1 . State its measured half-life.
1.29

---

procedure-details: Pharmacokinetic studies in mice
Format: in vivo, male CD1 mice
condition: male, CD1, mouse, plasma, IV, 3 mg/kg
Recorded clearance, one value per entry.
The reply should contain only the number, in mL/min/kg.

Some solved cases for reference:
c1cc(OC2CCNCC2)cc(-c2onc3ccc(-c4nnn[nH]4)cc23)c1 [Compound 12] ... 11.8
FC(F)(F)Oc1ccc(-c2onc3ccc(-c4nnn[nH]4)cc23)cc1 [Compound 8] ... 3.15
O=C(Nc1cccc(-c2onc3ccc(-c4nnn[nH]4)cc23)c1)C1CC1 [Compound 11] ... 7.52

Respond only with clearance recorded for Clc1cnc(Oc2cccc(-c3onc4ccc(-c5nnn[nH]5)cc34)c2)c(Cl)c1 [Compound 13]
15.5

---

# pIC50 listing for each entry below
assay-system: purified recombinant human IPMK kinase domain (Homo sapiens, UniProt Q8NFU5)
procedure-details: IPMK IC50 determination, Kinase-Glo assay
Assay type: biochemical
condition: supplementary csv; read-out: IPMK IC50
Just so you know, pIC50 here is -log10 of the concentration in molar units; reply with that number alone.

Cc1cc(C)cc(-c2onc3ccc(-c4nnn[nH]4)cc23)c1 [Compound 4] ... 7.61

Fill: pIC50 (purified recombinant human IPMK kinase domain (Homo sapiens, UniProt Q8NFU5)) for this compound FC(F)(F)c1ccc(-c2onc3ccc(-c4nnn[nH]4)cc23)cc1 [Compound 7]
7.73

System purified recombinant human IPMK kinase domain (Homo sapiens, UniProt Q8NFU5). Read-out pIC50. Item Cc1cc(C)cc(-c2onc3ccc(C(=O)O)cc23)c1 [Compound 3] . Report value.
6.67

Send back purified recombinant human IPMK kinase domain (Homo sapiens, UniProt Q8NFU5) pIC50 of O=C(Nc1ccc(-c2onc3ccc(-c4nnn[nH]4)cc23)cc1)C1CC1 [Compound 10] only.
7.24

---

procedure-details: Pharmacokinetic studies in mice
Assay type: in vivo, male CD1 mice
condition: male, CD1, mouse, plasma, IV, 3 mg/kg
metric-name: Cmax (µM)
Answer in µM, number only, no unit symbol.

Give the measured Cmax for Clc1cnc(Oc2cccc(-c3onc4ccc(-c5nnn[nH]5)cc34)c2)c(Cl)c1 [Compound 13]
50.5

Kindly indicate its recorded Cmax. Item: c1cc(OC2CCNCC2)cc(-c2onc3ccc(-c4nnn[nH]4)cc23)c1 [Compound 12]
44

Look up and report measured Cmax for this entry: FC(F)(F)Oc1ccc(-c2onc3ccc(-c4nnn[nH]4)cc23)cc1 [Compound 8]
33

Consider the compound O=C(Nc1cccc(-c2onc3ccc(-c4nnn[nH]4)cc23)c1)C1CC1 [Compound 11] . State its measured Cmax.
66.6

Where do the numbers come from? From paper PMC12362615.
